Where these numbers come from: patent US20190127480A1

Biological target: T1, Soluble heterodimeric CD3 protein (hCD3-epsilon/hCD3-delta) with a human Fc tag (hFcΔAdp/hFc) or a mouse Fc … (human, UniProt P07766 23-126; P04234 22-105)
T1 construct: also called hCD3ε/δ; not shown: Fc tag: human (hFcΔAdp/hFc); which tag was used in Ta
T1 sequence (P07766 23-126 limits assumed, stated change not applied, chain 1 of 2): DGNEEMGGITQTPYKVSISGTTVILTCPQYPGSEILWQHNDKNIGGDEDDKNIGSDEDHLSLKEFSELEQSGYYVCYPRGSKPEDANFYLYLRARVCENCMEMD
T1 sequence (P04234 22-105 limits assumed, stated change not applied, chain 2 of 2): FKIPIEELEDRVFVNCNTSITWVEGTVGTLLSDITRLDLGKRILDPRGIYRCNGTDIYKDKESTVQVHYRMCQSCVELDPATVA
Assay: SPR Biacore, 25 C, antibody-capture format
Method: Measurements were conducted on a T200 Biacore™ instrument. Soluble heterodimeric CD3 protein (hCD3-epsilon/hCD3-delta; SEQ ID NOs:1652/1653) with either a human Fc tag (hFcΔAdp/hFc; SEQ ID NOs:1683/1684) or a mouse Fc tag (mFcΔAdp/mFc; SEQ ID NOs:1685/1686) was injected over the antibody captured surface and the binding response was recorded. Heterodimeric CD3 protein was purified using the method described in Davis et al. (US2010/0331527). […]
READOUT NAME: kon (M⁻¹ s⁻¹)
Answer with a number only, understood to be in M⁻¹ s⁻¹.

{"BINDER": "H2M2778N (antibody, V domains shown, Hybridoma antibody, human variable regions, mouse IgG2 Fc) VH: EVQLVESGGGLVQPGRSLRLSCAASGFTFDDYSMHWVRQAPGKGLEWVSGISWNSRSIDYADSVKGRFTISRDNAKNSLYLQMNSLRAEDTALYYCVKDNSGYGRYYYYGMDVWGQGTTVSVSS VL: KIVMTQSPATLSVSPGERATLSCRASQSVSGNLAWYQQKPGQAPRLLIYGASTRATSIPARFSGSGSGTEFTLTISSLQSEDFAVYFCQHYYNWPLTFGGGTKVEIR", "kon / M⁻¹ s⁻¹": 21300}
{"BINDER": "H2M3563N (antibody, V domains shown, Hybridoma antibody, human variable regions, mouse IgG2 Fc) VH: EVHLVESGGGLVQPGRSLRLSCAASGFTFDDYTMHWVRQAPGKGLEWVSDISWNSGSIGYADSVKGRFTVSRDNAKNSLYLQMNSLRGEDTALYYCAKDMSGYGHYGKYGMDVWGQGTTVTVSS VL: DIQMTQSPSSLSASVGDRVTITCRASQSIRSYLNWYQQKPGKVPKLLIYAASSLQSGVPSRFSGSGSGTDFTLTINSLQPDDFATYYCQQTYSNPPITFGQGTRLEIK", "kon / M⁻¹ s⁻¹": 32400}

// next entry
What measured kon goes with H1M2692N (antibody, V domains shown, Hybridoma antibody, human variable regions, mouse IgG1 Fc) VH: EVQLVESGGGLVQPGGSLRLSCAASGFSFDDYTMHWVRQPPGKGLEWVSGISWNSGSIGYADSVKGRFTISRDNAKNSLYLQMNSLRAGDTALYYCAKDNSGYGYYYYYGMDVWGQGTTVTVSS VL: EIVMTQSPATLSVSPGERATLSCRASQSVSSNLAWYQQKPGQAPRLLIYGASTRATGIPARFSGSGSGTEFTLTISSLQSEDFAVYYCQQYYNWPLTFGGGTKVEIK ? 8050
